Source listed as patent US9617267B2.

target: CYP2C19 (Homo sapiens (Human)); experiment: CYP enzyme inhibition, fluorescent substrate (CEC); settings: human, CYP2C19 enzyme (BD Biosciences), probe CEC
Sequence (P33261 whole entry): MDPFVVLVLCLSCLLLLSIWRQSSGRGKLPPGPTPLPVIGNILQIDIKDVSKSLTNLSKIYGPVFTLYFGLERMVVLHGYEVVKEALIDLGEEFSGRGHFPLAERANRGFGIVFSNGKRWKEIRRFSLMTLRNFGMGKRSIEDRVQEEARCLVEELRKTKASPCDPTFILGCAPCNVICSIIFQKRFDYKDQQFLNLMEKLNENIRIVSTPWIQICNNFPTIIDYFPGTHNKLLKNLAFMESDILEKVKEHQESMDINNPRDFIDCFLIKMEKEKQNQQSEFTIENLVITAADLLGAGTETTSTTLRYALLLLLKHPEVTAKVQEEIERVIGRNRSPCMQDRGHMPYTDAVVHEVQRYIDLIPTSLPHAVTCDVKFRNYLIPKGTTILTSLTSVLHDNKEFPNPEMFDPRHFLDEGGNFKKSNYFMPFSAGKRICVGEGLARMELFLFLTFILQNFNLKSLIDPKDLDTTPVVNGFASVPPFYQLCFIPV

{"molecule": "CCCS(=O)(=O)Nc1ccc(F)c(C(=O)c2c[nH]c3nccc(NC4CCCC4)c23)c1F [P-2012]", "IC50 at 30 min": "> 10 µM"}

###

molecular target: B-Raf V600E (Homo sapiens (Human), UniProt P15056, V600E); experiment: B-Raf V600E kinase activity biochemical assay (AlphaScreen, biotin-MEK1 phosphorylation); settings: B-Raf V600E
Sequence (P15056 whole entry V600E): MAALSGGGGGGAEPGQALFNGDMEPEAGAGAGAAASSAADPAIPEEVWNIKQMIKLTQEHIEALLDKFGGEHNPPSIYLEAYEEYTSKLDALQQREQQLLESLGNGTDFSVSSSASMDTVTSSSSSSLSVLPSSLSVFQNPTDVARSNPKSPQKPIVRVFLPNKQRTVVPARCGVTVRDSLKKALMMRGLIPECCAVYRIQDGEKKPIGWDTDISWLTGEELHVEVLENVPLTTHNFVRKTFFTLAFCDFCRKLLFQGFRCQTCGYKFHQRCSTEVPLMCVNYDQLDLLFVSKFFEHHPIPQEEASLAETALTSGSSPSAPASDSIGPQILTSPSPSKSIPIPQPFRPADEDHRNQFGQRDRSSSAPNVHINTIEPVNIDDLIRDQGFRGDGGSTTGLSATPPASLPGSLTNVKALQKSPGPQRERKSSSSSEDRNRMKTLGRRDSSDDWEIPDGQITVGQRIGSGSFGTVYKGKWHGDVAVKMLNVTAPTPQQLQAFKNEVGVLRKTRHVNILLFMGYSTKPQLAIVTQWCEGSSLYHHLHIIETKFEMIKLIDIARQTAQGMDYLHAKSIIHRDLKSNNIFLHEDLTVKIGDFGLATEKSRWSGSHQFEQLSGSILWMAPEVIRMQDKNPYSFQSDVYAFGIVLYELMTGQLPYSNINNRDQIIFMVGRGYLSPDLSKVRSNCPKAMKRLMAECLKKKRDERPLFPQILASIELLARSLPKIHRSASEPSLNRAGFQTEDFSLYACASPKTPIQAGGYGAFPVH
measured-metric: IC50

{"compound-structure": "O=C(c1c(F)ccc(NS(=O)(=O)c2ccc(C(F)(F)F)cc2)c1F)c1c[nH]c2ncnc(N3CCCC3)c12", "measured-metric": "IC50", "reported-result": "> 0.1 µM"}
{"compound-structure": "CCCS(=O)(=O)Nc1ccc(F)c(C(=O)c2c[nH]c3ncnc(NC4CCOCC4)c23)c1F", "measured-metric": "IC50", "reported-result": "< 0.1 µM"}
{"compound-structure": "O=C(c1c(F)ccc(NS(=O)(=O)c2ccc(C(F)(F)F)cc2)c1F)c1c[nH]c2ncnc(NCC3CC3)c12", "measured-metric": "IC50", "reported-result": "< 0.1 µM"}
{"compound-structure": "CCCS(=O)(=O)Nc1ccc(F)c(C(=O)c2c[nH]c3nccc(NC4CCCC4)c23)c1F", "measured-metric": "IC50", "reported-result": "< 0.1 µM"}
